From: patent US20160297833A1

target: human full-length MKNK1 (Homo sapiens, UniProt Q9BUB5, T385D); construct: GST (N); purchased Carna Biosciences 02-145; host or cells: insect cells (baculovirus expression system); assay: MKNK1 kinase high ATP assay (TR-FRET); assay type: biochemical; settings: Table 1; MKNK1 kinase high ATP assay, 2 mM ATP; read-out: MKNK1 IC50
Sequence (Q9BUB5 1-424 isoform Q9BUB5-2 T344D): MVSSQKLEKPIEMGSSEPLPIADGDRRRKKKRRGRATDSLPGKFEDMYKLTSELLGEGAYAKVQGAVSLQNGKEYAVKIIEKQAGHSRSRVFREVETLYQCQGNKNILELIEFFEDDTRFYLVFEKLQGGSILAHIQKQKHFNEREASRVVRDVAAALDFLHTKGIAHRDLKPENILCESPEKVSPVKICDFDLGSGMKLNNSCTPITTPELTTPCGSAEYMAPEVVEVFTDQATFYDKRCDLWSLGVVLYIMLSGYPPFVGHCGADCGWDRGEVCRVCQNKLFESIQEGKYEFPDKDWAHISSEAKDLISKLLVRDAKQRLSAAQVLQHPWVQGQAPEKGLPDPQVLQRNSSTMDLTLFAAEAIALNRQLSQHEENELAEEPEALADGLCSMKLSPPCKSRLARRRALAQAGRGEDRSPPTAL
# pIC50 listing for each entry below
On this scale, pIC50 is minus log10 of a concentration expressed in M (mol/L).

CCOc1cc2[nH]ncc2cc1Nc1ncnc2sc3c(c12)CC[C@H](C(=O)N1C[C@@H](O)[C@H](O)C1)C3 [Example 75] = 9.52
O=C([C@H]1CCc2c(sc3ncnc(Nc4cc5cn[nH]c5cc4F)c23)C1)N1CCOCC1 [Example 226] = 8.11

With those in mind, consider the next compound.
[Q] Item under review: CCOc1cc2[nH]ncc2cc1Nc1ncnc2sc3c(c12)CC[C@H](C(=O)N(C)CCO)C3 [Example 73] . Reported pIC50?
[A] 9.52
